target: EfaUPPS (K47A) (Enterococcus faecalis, UniProt Q831K9, K53A); construct: His tag; assay: Microscale thermophoresis binding assay, EfaUPPS K47A
// reported Kd per item
Express it in µM; write the number only.

INSERT INTO assay_data (compound, experimental_system, readout_value) VALUES
  ('CC(C)=CCC[C@]1(C)C=Cc2c(O)c3c(c(CC=C(C)C)c2O1)O[C@]12C(=C[C@@H]4C[C@H]1C(C)(C)O[C@@]2(C/C=C(/C)C(=O)O)C4=O)C3=O [GA, gambogic acid]', 'EfaUPPS (K47A) (Enterococcus faecalis, UniProt Q831K9, K53A)', 4.61);

Exam item: Which value of Kd has been reported for CC(C)=CCC[C@]1(C)CC(O)c2c(O)c3c(c(CC=C(C)C)c2O1)O[C@]12C(=C[C@@H]4C[C@H]1C(C)(C)O[C@@]2(C/C=C(/C)C(=O)O)C4=O)C3=O (some centres unmarked) [NGA, neogambogic acid] in the records?
Marked response: 65.9

###

biological target: WT EfaUPPS (Enterococcus faecalis); construct: His tag; made in house; host or cells: E. coli BL21(DE3); assay: Microscale thermophoresis binding assay, wild-type EfaUPPS
Sequence (Q831K9 whole entry): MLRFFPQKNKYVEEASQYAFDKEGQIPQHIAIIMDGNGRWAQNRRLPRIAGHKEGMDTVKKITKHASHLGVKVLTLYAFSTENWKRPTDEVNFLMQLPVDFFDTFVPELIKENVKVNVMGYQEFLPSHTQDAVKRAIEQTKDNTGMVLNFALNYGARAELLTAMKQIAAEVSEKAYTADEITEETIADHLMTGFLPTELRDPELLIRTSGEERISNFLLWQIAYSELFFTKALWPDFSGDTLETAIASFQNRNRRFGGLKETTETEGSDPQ
Assay readout: pKd
Here pKd is given on a logarithmic scale as minus log10 of the concentration in mol/L.

Exam item: Which value of pKd has been reported for CC(C)=CCC[C@]1(C)CC(O)c2c(O)c3c(c(CC=C(C)C)c2O1)O[C@]12C(=C[C@@H]4C[C@H]1C(C)(C)O[C@@]2(C/C=C(/C)C(=O)O)C4=O)C3=O (stereo partly shown) in the records?
Marked response: 5.25

###

Target: EfaUPPS (L146A) (Enterococcus faecalis, UniProt Q831K9, L152A)
Construct: His tag
Test: UPPS inhibition assay, EfaUPPS L146A mutant
Method: The EfaUPPS site-directed mutagenesis was generated using QuikChange site-directed mutagenesis kit (Agilent) according to the manufacturer’s instructions. The purification of site-directed mutation was using a similar strategy as described above. The UPPS inhibition assay was carried out by measuring the fluorescence of the reaction mixture in a black 96-well microtiter plate (Corning, United States). […]
Assay readout: IC50

Exam item: Which value of IC50 has been reported for `CC(C)=CCC[C@]1(C)C=Cc2c(O)c3c(c(CC=C(C)C)c2O1)O[C@]12C(=C[C@@H]4C[C@H]1C(C)(C)O[C@@]2(C/C=C(/C)C(=O)O)C4=O)C3=O` in the records?
Marked response: ~30 µM

Exam item: Which value of IC50 has been reported for CC(C)=CCC[C@]1(C)CC(O)c2c(O)c3c(c(CC=C(C)C)c2O1)O[C@]12C(=C[C@@H]4C[C@H]1C(C)(C)O[C@@]2(C/C=C(/C)C(=O)O)C4=O)C3=O (some centres unmarked) in the records?
Marked response: ~30 µM

###

Target: EfaUPPS (R42A) (Enterococcus faecalis, UniProt Q831K9, R48A)
Construct: His tag
Assay: UPPS inhibition assay, EfaUPPS R42A mutant
Procedure: The EfaUPPS site-directed mutagenesis was generated using QuikChange site-directed mutagenesis kit (Agilent) according to the manufacturer’s instructions. The purification of site-directed mutation was using a similar strategy as described above. The UPPS inhibition assay was carried out by measuring the fluorescence of the reaction mixture in a black 96-well microtiter plate (Corning, United States). […]
Assay readout: pIC50
Here pIC50 is given on a logarithmic scale as minus log10 of the concentration in mol/L.

Exam item: Which value of pIC50 has been reported for CC(C)=CCC[C@]1(C)C=Cc2c(O)c3c(c(CC=C(C)C)c2O1)O[C@]12C(=C[C@@H]4C[C@H]1C(C)(C)O[C@@]2(C/C=C(/C)C(=O)O)C4=O)C3=O [GA, gambogic acid] in the records?
Marked response: 5.27
